For each entry below, report its association rate value.
Biological target: HER2 (Homo sapiens, UniProt P04626)
Test: Biacore SPR binding to immobilised HER2
Conditions: immobilised HER2
API: value field is a number in M⁻¹ s⁻¹; no unit string.

Query: Entry scFv (TCT1067)-Acetate DAR 16 (conjugate) scFv: SGSGGSGQVQLVQSGAEVKKPGESLKISCKGSGYSFTSYWIAWVRQMPGKGLEYMGLIYPGDSDTKYSPSFQGQVTISVDKSVSTAYLQWSSLKPSDSAVYFCARHDVGYCTDRTCAAWPEWLGVWGQGTLVTVSSGGGGSGGGGSGGGGSQSVLTQPPSVSAAPGQKVTISCSGSSSNIGNNYVSWYQQLPGTAPKLLIYGHTNRPAGVPDRFSGSKSGTSASLAISGFRSEDEADYYCASWDYTLSGWVFGGGTKLTVLMASMTGGQQMG : reported association rate = ?
Reply: 3.63e+06

Query: Now the same for scFv (TCT1067)-Auristatin-F-C5 DAR 3.3 (conjugate) scFv: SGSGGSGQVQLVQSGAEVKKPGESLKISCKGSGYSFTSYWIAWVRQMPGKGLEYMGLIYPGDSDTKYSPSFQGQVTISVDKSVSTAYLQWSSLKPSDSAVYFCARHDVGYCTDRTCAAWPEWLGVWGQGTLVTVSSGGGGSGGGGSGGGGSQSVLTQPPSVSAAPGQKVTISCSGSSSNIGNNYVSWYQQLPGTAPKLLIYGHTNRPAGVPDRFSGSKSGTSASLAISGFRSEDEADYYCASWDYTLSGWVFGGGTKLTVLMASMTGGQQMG
Reply: 556000

Query: Now the same for scFv (TCT1067)-MMAF-C5 DAR 5.2 (conjugate) scFv: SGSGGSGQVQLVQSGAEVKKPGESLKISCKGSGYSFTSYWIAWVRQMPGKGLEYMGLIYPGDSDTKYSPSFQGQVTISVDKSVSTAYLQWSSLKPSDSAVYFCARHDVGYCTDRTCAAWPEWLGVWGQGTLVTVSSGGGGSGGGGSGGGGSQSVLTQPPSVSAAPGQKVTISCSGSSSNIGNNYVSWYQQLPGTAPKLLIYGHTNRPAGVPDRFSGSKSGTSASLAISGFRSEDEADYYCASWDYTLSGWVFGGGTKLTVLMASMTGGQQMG
Reply: 1.8e+06

Query: Now the same for scFv (TCT1067)-Auristatin-F-C5 DAR 5.65 (conjugate) scFv: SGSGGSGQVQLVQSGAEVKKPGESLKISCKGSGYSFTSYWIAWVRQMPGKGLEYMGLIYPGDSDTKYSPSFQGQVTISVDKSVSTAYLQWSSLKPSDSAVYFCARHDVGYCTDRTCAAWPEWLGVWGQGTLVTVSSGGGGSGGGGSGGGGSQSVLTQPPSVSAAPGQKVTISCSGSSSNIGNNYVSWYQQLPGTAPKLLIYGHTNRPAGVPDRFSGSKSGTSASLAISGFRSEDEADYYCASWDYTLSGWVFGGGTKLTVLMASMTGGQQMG
Reply: 336000
